assay: Binding affinity to DNA at 5 mg/ml by TLC analysis
Activity calls are given as the source filed them. The calls are words filed in the database; no cut-off is given here.
Returns: one label drawn from active, inactive

Below, 5 molecules whose answers are already recorded.
S=c1[nH]c2c(c(=S)[nH]1)C(c1cccc(Br)c1)C1=C(CCCC1)N2 (configuration not stated) ... active
CCCCn1c(=S)[nH]c2c(c1=N)C(c1ccc(Cl)cc1)C1=C(CCCC1)N2 (configuration not stated) ... inactive
Nc1ncnc2c1C(c1ccc(Cl)cc1)C1=C(CCCC1)N2 (configuration not stated) ... active
Cc1nc2c(c(=O)[nH]1)C(c1ccccc1)C1=C(CCCC1)N2 (configuration not stated) ... active
COc1ccc(C2C3=C(CCCC3)Nc3nc(C)[nH]c(=O)c32)cc1OC (configuration not stated) ... active

# fetch the recorded call for COc1ccc(C2C3=C(CCCC3)Nc3ncnc(N)c32)cc1OC (configuration not stated) here
active

Test call, this molecule: S=c1[nH]c2c(c(=S)[nH]1)C(c1ccccc1)C1=C(CCCC1)N2 (configuration not stated)
active

What was the test verdict on c1ccc(C2C3=C(CCCC3)Nc3ncn4ncnc4c32)cc1 (configuration not stated) ?
inactive

Called result for Brc1cccc(C2C3=C(CCCC3)Nc3ncn4ncnc4c32)c1 (configuration not stated)
inactive

Which result was noted for this molecule in the test: N=c1c2c([nH]c(=S)n1-c1ccccc1)NC1=C(CCCC1)C2c1ccccc1 (configuration not stated)
active

For this molecule, state the assay outcome: CCCCn1c(=S)[nH]c2c(c1=N)C(c1ccccc1)C1=C(CCCC1)N2 (configuration not stated)
active

Record lookup: outcome of this test for COc1ccc(C2C3=C(CCCC3)Nc3[nH]c(=S)n(-c4ccccc4)c(=N)c32)cc1OC (configuration not stated) ?
active

Hey, what did the test say about Cc1nc2c(c(=O)[nH]1)C(c1cccc(Br)c1)C1=C(CCCC1)N2 (configuration not stated) ?
active

Returns: the outcome recorded for N=c1c2c([nH]c(=S)n1-c1ccccc1)NC1=C(CCCC1)C2c1ccc(Cl)cc1 (configuration not stated) in this assay.
active

====

test system: MCF7; test: Cytotoxicity against Homo sapiens (human) MCF7 cells after 48 hr by SRB assay; format: functional, cell-based; details: MCF7, 48 h
MEASUREMENT NAME: IC50

Reference set, count: 2
N=c1c2c(ncn1/N=C/c1ccc(Cl)cc1)NC1=C(CCCC1)C2c1ccc(Cl)cc1 (stereo unspecified) ... > 10 µM
Brc1cccc(C2C3=C(CCCC3)Nc3ncn4ncnc4c32)c1 (stereo unspecified) ... > 10 µM

Request the reported IC50 associated with O=c1[nH]cnc2c1C(c1ccccc1)C1=C(CCCC1)N2 (stereo unspecified)
> 10 µM

Requested field: IC50. Item: c1ccc(C2C3=C(CCCC3)Nc3ncn4ncnc4c32)cc1 (stereo unspecified)
> 10 µM

Fill blank: measured IC50 of the compound COc1ccc(C2C3=C(CCCC3)Nc3[nH]c(=S)[nH]c(=S)c32)cc1OC (stereo unspecified) is ____.
> 10 µM

Any idea what IC50 was measured for COc1ccc(C2C3=C(CCCC3)Nc3nc(C)[nH]c(=O)c32)cc1OC (stereo unspecified) ?
> 10 µM

====

experiment: Binding affinity to DNA at 5 mg/ml by TLC analysis
Calls of active or inactive are those of the source. No cut-off for these calls is given here.
Assign a class; possible classes are true for active, false for inactive

Record excerpt, results attached:
CCOC(=O)/N=c1/c2c(ncn1NC(=O)OCC)NC1=C(CCCC1)C2c1ccccc1 (stereo not drawn) ... true
COc1ccc(/C=N/n2cnc3c(c2=N)C(c2ccccc2)C2=C(CCCC2)N3)cc1OC (stereo not drawn) ... true
COc1ccc(C2C3=C(CCCC3)Nc3[nH]c(=S)[nH]c(=S)c32)cc1OC (stereo not drawn) ... true
COc1ccc(/C=N/n2cnc3c(c2=N)C(c2ccc(OC)c(OC)c2)C2=C(CCCC2)N3)cc1OC (stereo not drawn) ... true
O=c1[nH]cnc2c1C(c1ccccc1)C1=C(CCCC1)N2 (stereo not drawn) ... false
COc1ccc(C2C3=C(CCCC3)Nc3ncn(/N=C/c4ccc(Cl)cc4)c(=N)c32)cc1OC (stereo not drawn) ... true

For N=c1c2c(ncn1/N=C/c1ccc(Cl)cc1)NC1=C(CCCC1)C2c1ccc(Cl)cc1 (stereo not drawn) , which call appears in the assay record?
true

// return assay outcome for N=c1c2c(ncn1/N=C/c1ccc(Cl)cc1)NC1=C(CCCC1)C2c1ccccc1 (stereo not drawn)
false
